tested on: Staphylococcus sp.; experiment: In vitro antibacterial evaluation: minimum inhibitory concentration (MIC), broth dilution method; assay type: cell-based; settings: Staphylococcus aureus-SMITH (GC 4543); 18 hours at 35° C.
Kindly supply the reported MIC Staphylococcus aureus-SMITH (GC 4543) values for the records listed here.
Answers are plain numbers, in µg/mL.

The measured MIC Staphylococcus aureus-SMITH (GC 4543) associated with CC(=O)OCC1OC(OC2C(CO)OC(Oc3ccc(CC4NC(=O)C(C(C)c5ccccc5)NC(=O)CNC(=O)C(CO)NC(=O)C(C(O)C5CNC(=N)N5C5OC(CO)C(O)C(O)C5O)NC(=O)C(C(O)C5CNC(=N)N5)NC4=O)cc3)C(O)C2O)C(O)C(OC(=O)CCC(C)C)C1O (stereo not shown) [Example 270b] reads 4

With those in mind, consider the next compound.
Lab note: CC(c1ccccc1)C1NC(=O)CNC(=O)C(CO)NC(=O)C(C(O)C2CNC(=N)N2C2OC(CO)C(O)C(O)C2O)NC(=O)C(C(O)C2CNC(=N)N2)NC(=O)C(Cc2ccc(OC3OC(CO)C(OC4OC(COCc5ccc(Oc6ccccc6)cc5)C(O)C(O)C4O)C(O)C3O)cc2)NC1=O (stereo not shown) [Example 236] gave MIC Staphylococcus aureus-SMITH (GC 4543) of 2

###

test system: Staphylococcus sp.; assay: In vitro antibacterial evaluation: minimum inhibitory concentration (MIC), broth dilution method; type: cell-based; conditions: broth dilution, 5×10^5 CFU/mL, 18 hours at 35° C.
MEASURE_NAME: MIC Coagulase Negative Staphylococcus (GC 4549)

The examples below pair each entry with its known result.
The compound identified as CC(c1ccccc1)C1NC(=O)CNC(=O)C(CO)NC(=O)C(C(O)C2CNC(=N)N2C2OC(CO)C(O)C(O)C2O)NC(=O)C(C(O)C2CNC(=N)N2)NC(=O)C(Cc2ccc(OC3OC(CO)C(OC4OC5COC(c6ccc(C(C)(C)C)cc6)OC5C(O)C4O)C(O)C3O)cc2)NC1=O (stereo not drawn) [Example 147] registered its MIC Coagulase Negative Staphylococcus (GC 4549) at <0.5 to 1 µg/mL

MIC Coagulase Negative Staphylococcus (GC 4549) for COc1cccc(C2OCC3OC(OC4C(CO)OC(Oc5ccc(CC6NC(=O)C(C(C)c7ccccc7)NC(=O)CNC(=O)C(CO)NC(=O)C(C(O)C7CNC(=N)N7C7OC(CO)C(O)C(O)C7O)NC(=O)C(C(O)C7CNC(=N)N7)NC6=O)cc5)C(O)C4O)C(O)C(O)C3O2)c1 (stereo not drawn) [Example 137] is 0.5 to 1 µg/mL

Now look at this entry.
For reference, reported MIC Coagulase Negative Staphylococcus (GC 4549) for CC(c1ccccc1)C1NC(=O)CNC(=O)C(CO)NC(=O)C(C(O)C2CNC(=N)N2C2OC(CO)C(O)C(O)C2O)NC(=O)C(C(O)C2CNC(=NC(=O)C(C)(C)C)N2)NC(=O)C(Cc2ccc(OC3OC(CO)C(OC4OC(CO)C(O)C(O)C4O)C(O)C3O)cc2)NC1=O (stereo not drawn) [Example 155] stands at <0.5 to 1 µg/mL

###

system: Staphylococcus sp.; assay: In vitro antibacterial evaluation: minimum inhibitory concentration (MIC), broth dilution method; format: cell-based; conditions: strain GC 4551
Text: […]
Provide the reported MIC Coagulase Negative Staphylococcus (GC 4551) of each item.

For every record below, what is its MIC Coagulase Negative Staphylococcus (GC 4551)?
1. CC(c1ccccc1)C1NC(=O)CNC(=O)C(CO)NC(=O)C(C(O)C2CNC(=N)N2C2OC(CO)C(O)C(O)C2O)NC(=O)C(C(O)C2CNC(=N)N2)NC(=O)C(Cc2ccc(OC3OC(CO)C(OC4OC5COC(Cc6ccccc6)OC5C(O)C4O)C(O)C3O)cc2)NC1=O (stereo not shown)
2. CC(c1ccccc1)C1NC(=O)CNC(=O)C(CO)NC(=O)C(C(O)C2CNC(=N)N2C2OC(CO)C(O)C(O)C2O)NC(=O)C(C(O)C2CNC(=N)N2)NC(=O)C(Cc2ccc(OC3OC(CO)C(OC4OC5COC(Cc6ccc(Cl)cc6)OC5C(O)C4O)C(O)C3O)cc2)NC1=O (stereo not shown)
3. CC(c1ccccc1)C1NC(=O)CNC(=O)C(CO)NC(=O)C(C(O)C2CNC(=N)N2C2OC(CO)C(O)C(O)C2O)NC(=O)C(C(O)C2CNC(=N)N2)NC(=O)C(Cc2ccc(OC3OC(CO)C(OC4OC(CO)C(O)C5OC(c6ccccc6)OC45)C(O)C3O)cc2)NC1=O (single isomer, unassigned) [Example 104b]
4. CC(c1ccccc1)C1NC(=O)CNC(=O)C(CO)NC(=O)C(C(O)C2CNC(=N)N2C2OC(CO)C(O)C(O)C2O)NC(=O)C(C(O)C2CNC(=N)N2)NC(=O)C(Cc2ccc(OC3OC(CO)C(OC4OC5COC6(CCCCCCCCCCCC6)OC5C(O)C4O)C(O)C3O)cc2)NC1=O (stereo not shown)

result:
1 to 2 µg/mL
<0.5 µg/mL
8 µg/mL
32 µg/mL

###

Hi there, I'd appreciate the recorded MIC Enterococccus faecalis (GC 4552) for every entry that follows.
tested on: Enterococcus sp.; assay: In vitro antibacterial evaluation: minimum inhibitory concentration (MIC), broth dilution method; assay type: cell-based; settings: broth dilution, 5×10^5 CFU/mL, 18 hours at 35° C.
Text: […]

Entry CC(c1ccccc1)C1NC(=O)CNC(=O)C(CO)NC(=O)C(C(O)C2CNC(=N)N2C2OC(CO)C(O)C(O)C2O)NC(=O)C(C(O)C2CNC(=N)N2)NC(=O)C(Cc2ccc(OC3OC(CO)C(OC4OC(CO)C(O)C5OC(c6ccccc6)OC45)C(O)C3O)cc2)NC1=O (single isomer, unassigned) [Example 104a] under Enterococcus sp. had MIC Enterococccus faecalis (GC 4552) of >0.5 µg/mL

Give MIC Enterococccus faecalis (GC 4552) for each listed item.
1. N=C1NCC(C(O)C2NC(=O)C(Cc3ccc(OC4OC(CO)C(OC5OC6COC7(OC6C(O)C5O)C5CC6CC(C5)CC7C6)C(O)C4O)cc3)NC(=O)C(CC3CCCCC3)NC(=O)CNC(=O)C(CO)NC(=O)C(C(O)C3CNC(=N)N3C3OC(CO)C(O)C(O)C3O)NC2=O)N1 (stereo not drawn)
2. CC(c1ccccc1)C1NC(=O)CNC(=O)C(CO)NC(=O)C(C(O)C2CNC(=N)N2C2OC(CO)C(O)C(O)C2O)NC(=O)C(C(O)C2CNC(=N)N2)NC(=O)C(Cc2ccc(OC3OC(CO)C(OC4OC5COC6(OC5C(O)C4O)C4CC5CC(C4)CC6C5)C(O)C3O)cc2)NC1=O (stereo not drawn)

result:
1 to 2 µg/mL
1 to 2 µg/mL

###

system: Escherichia coli; assay: In vitro antibacterial evaluation: minimum inhibitory concentration (MIC), broth dilution method; assay type: cell-based; conditions: strain GC 4559
Please go through the items and note down their MIC Escherichia coli (GC 4559).

Lab book: MIC Escherichia coli (GC 4559) of CC(=O)n1cc(C2OCC3OC(OC4C(CO)OC(Oc5ccc(CC6NC(=O)C(C(C)c7ccccc7)NC(=O)CNC(=O)C(CO)NC(=O)C(C(O)C7CNC(=N)N7C7OC(CO)C(O)C(O)C7O)NC(=O)C(C(O)C7CNC(=N)N7)NC6=O)cc5)C(O)C4O)C(O)C(O)C3O2)c2ccccc21 (stereo not drawn) noted as >64 µg/mL

The reported MIC Escherichia coli (GC 4559) of the molecule CC(c1ccccc1)C1NC(=O)CNC(=O)C(CO)NC(=O)C(C(O)C2CNC(=N)N2C2OC(CO)C(O)C(O)C2O)NC(=O)C(C(O)C2CNC(=N)N2)NC(=O)C(Cc2ccc(OC3OC(CO)C(OC4OC5COC(c6ccc(S(C)(=O)=O)cc6)OC5C(O)C4O)C(O)C3O)cc2)NC1=O (stereo not drawn) was >64 µg/mL

Further cases:
Field MIC Escherichia coli (GC 4559) (entry CC(C)=CCCC(C)=CCOc1ccc(C2OCC3OC(OC4C(CO)OC(Oc5ccc(CC6NC(=O)C(C(C)c7ccccc7)NC(=O)CNC(=O)C(CO)NC(=O)C(C(O)C7CNC(=N)N7C7OC(CO)C(O)C(O)C7O)NC(=O)C(C(O)C7CNC(=N)N7)NC6=O)cc5)C(O)C4O)C(O)C(O)C3O2)cc1 (stereo not drawn) ) reads >64 µg/mL

###

test system: Enterococcus sp.; test: In vitro antibacterial evaluation: minimum inhibitory concentration (MIC), broth dilution method; format: cell-based; conditions: broth dilution, 5×10^5 CFU/mL, 18 hours at 35° C.
Assignment: determine reported MIC Enterococccus faecalis (GC 4554) for the given molecules.
Numbers only, in µg/mL.

Examples with their reported MIC Enterococccus faecalis (GC 4554) follow.
# molecule CC(C)=CCCC1OCC2OC(OC3C(CO)OC(Oc4ccc(CC5NC(=O)C(C(C)c6ccccc6)NC(=O)CNC(=O)C(CO)NC(=O)C(C(O)C6CNC(=N)N6C6OC(CO)C(O)C(O)C6O)NC(=O)C(C(O)C6CNC(=N)N6)NC5=O)cc4)C(O)C3O)C(O)C(O)C2O1 (stereo not shown) ; its MIC Enterococccus faecalis (GC 4554) = 16

MIC Enterococccus faecalis (GC 4554) recorded for this molecule, CC(c1ccccc1)C1NC(=O)CNC(=O)C(CO)NC(=O)C(C(O)C2CNC(=N)N2C2OC(CO)C(O)C(O)C2O)NC(=O)C(C(O)C2CNC(=N)N2)NC(=O)C(Cc2ccc(OC3OC(CO)C(OC4OC5COC(CC6CCCCC6)OC5C(O)C4O)C(O)C3O)cc2)NC1=O (stereo not shown) , is 2

Okay, here is my list. What is MIC Enterococccus faecalis (GC 4554) for each of these?
1. CCCC(C)C1OCC2OC(OC3C(CO)OC(Oc4ccc(CC5NC(=O)C(C(C)c6ccccc6)NC(=O)CNC(=O)C(CO)NC(=O)C(C(O)C6CNC(=N)N6C6OC(CO)C(O)C(O)C6O)NC(=O)C(C(O)C6CNC(=N)N6)NC5=O)cc4)C(O)C3O)C(O)C(O)C2O1 (stereo not shown)
2. CC(c1ccccc1)C1NC(=O)CNC(=O)C(CO)NC(=O)C(C(O)C2CNC(=N)N2C2OC(CO)C(O)C(O)C2O)NC(=O)C(C(O)C2CNC(=N)N2)NC(=O)C(Cc2ccc(OC3OC(CO)C(OC4OC5COC(CC(C)(C)C)OC5C(O)C4O)C(O)C3O)cc2)NC1=O (stereo not shown)

result:
2
2
